Data provenance: paper PMC2927421

Target: T1, SH2 domain of SH2D3C (recombinant, on protein microarray) (human, UniProt Q8N5H7 220-319)
T1 construct: SH2D3C, human, SH2 domain
T1 sequence (looked up): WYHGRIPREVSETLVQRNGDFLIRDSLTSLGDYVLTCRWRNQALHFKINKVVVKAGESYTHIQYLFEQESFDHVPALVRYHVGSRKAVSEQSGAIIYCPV
Assay: peptide or protein array; recombinant human SH2 and PTB domains spotted on protein microarrays; probed in duplicate with eight concentrations of fluorescently labeled peptide, 10 nM to 5 µM; fluorescence fit to a saturation binding equation
Conditions: both partners purified
Where no end group is shown, it is not given here. [ ]: non-standard residue; d: D form. pY = N[C@@H](Cc1ccc(OP(=O)(O)O)cc1)C(=O)O
METRIC_NAME: Kd

BINDER	RECORDED_MEASUREMENT
KYVDSEGHL[pY]TVPIREQG (peptide, UniProt Q03135 5-22, looked up, also: fluorescent label (position not given here), caveolin-1 (Cav1), human, residues 5-22; also called Tyr14-Cav1 phosphopeptide (18 amino acids); source: synthetic peptide, purified to >95% by preparative reverse phase HPLC) [fluorescently labeled Tyr14-Cav1 phosphopeptide (residues 5-22 of Cav1, phosphorylated on Tyr14)]	< 2000 nM
